- target-under-test: Metabotropic glutamate receptor 8 (Rattus norvegicus)
- assay-explanation: mGluR8 Gi/Go-coupled signaling modulation – cell-based, rat, thallium flux, HTS, primary screen (AID 488969)
- condition-description: HEK293 rat mGluR8, GIRK thallium flux, FluoZin2; at 10 µM; stronger effect = higher value; submaximal glutamate (EC20) added with thallium
In all, about 110,000 compounds were measured (“z-score”: median about -0.1, highest 2% from about 2 on). What follows is part of a selection rich in the highest values, with near analogues and random picks from the rest.
recorded-endpoint: z-score
Please give only the number in your answer, with no unit.

Inquiry: Provide measured z-score value, entry: `O=C(NC(=S)Nc1nc2ccccc2s1)c1ccco1`
Reply text: 8.72

Inquiry: Provide measured z-score value, entry: CCC(C)N=CC1=C(O)CC(c2ccccc2)CC1=O (stereo not drawn)
Reply text: 2.05

Inquiry: Provide measured z-score value, entry: `O=C(NC(=S)NCc1ccc(-c2nc3ccccc3s2)cc1)c1ccco1`
Reply text: 2.52

Inquiry: Provide measured z-score value, entry: `Cc1c(C#N)c2ncn(Cc3ccccc3)c(=O)c2n1-c1ccccc1`
Reply text: -0.85

Inquiry: Provide measured z-score value, entry: `Cc1c(C#N)c2ncn(CC#N)c(=O)c2n1-c1ccccc1`
Reply text: 3.28

Inquiry: Provide measured z-score value, entry: `O=P(c1ccccc1)(c1ccccc1)N(c1ccccc1)c1ccccc1`
Reply text: -0.752

Inquiry: Provide measured z-score value, entry: O=C1CC(c2ccccc2)CC(O)=C1C=NCc1ccccc1 (stereo not drawn)
Reply text: -0.229

Inquiry: Provide measured z-score value, entry: `O=C(Nc1ccccc1-c1nc2ccccc2s1)c1ccco1`
Reply text: -0.0204

====

- target-under-test: Metabotropic glutamate receptor 8 (Rattus norvegicus) (UniProt P70579)
- Sequence (P70579 whole entry, looked up): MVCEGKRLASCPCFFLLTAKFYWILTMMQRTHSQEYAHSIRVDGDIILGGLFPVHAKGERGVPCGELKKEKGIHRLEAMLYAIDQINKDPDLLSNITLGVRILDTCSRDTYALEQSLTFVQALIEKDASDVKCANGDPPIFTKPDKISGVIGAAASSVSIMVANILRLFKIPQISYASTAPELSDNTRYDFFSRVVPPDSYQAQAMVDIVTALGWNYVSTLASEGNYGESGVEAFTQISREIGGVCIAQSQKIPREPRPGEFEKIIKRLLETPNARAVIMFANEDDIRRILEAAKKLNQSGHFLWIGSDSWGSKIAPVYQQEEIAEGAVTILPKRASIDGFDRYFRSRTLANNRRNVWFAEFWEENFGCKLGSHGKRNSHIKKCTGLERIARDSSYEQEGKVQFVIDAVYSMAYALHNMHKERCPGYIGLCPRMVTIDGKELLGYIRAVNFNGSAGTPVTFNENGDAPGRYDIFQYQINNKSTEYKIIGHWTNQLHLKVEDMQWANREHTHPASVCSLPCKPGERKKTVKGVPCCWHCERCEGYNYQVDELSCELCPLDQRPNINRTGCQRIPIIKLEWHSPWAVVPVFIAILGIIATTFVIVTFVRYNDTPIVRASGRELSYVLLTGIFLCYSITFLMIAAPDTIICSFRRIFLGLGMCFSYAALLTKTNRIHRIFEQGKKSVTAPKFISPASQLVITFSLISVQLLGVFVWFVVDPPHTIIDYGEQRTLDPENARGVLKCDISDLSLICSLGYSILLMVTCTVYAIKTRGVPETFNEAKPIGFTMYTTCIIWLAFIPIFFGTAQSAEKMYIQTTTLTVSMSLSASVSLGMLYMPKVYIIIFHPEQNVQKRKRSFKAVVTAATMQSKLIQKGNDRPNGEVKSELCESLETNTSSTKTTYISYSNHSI
- assay-explanation: mGluR8 Gi/Go-coupled signaling modulation – cell-based, rat, thallium flux, HTS, primary screen (AID 488969)
- condition-description: HEK293 rat mGluR8, GIRK (G protein-gated inwardly rectifying potassium channel) thallium flux, FluoZin2; at 10 µM; stronger effect = higher value; submaximal glutamate (EC20) added with thallium
Over roughly 110,000 compounds, “z-score” has its median near -0.1; the highest 2% begin near 2. What follows is part of a selection rich in the highest values, with near analogues and random picks from the rest.
Could you please report measured z-score for the items listed next?
Please give only the number in your answer, with no unit.

Inquiry: State recorded z-score with Metabotropic glutamate receptor 8 (Rattus norvegicus) (UniProt P70579), entry `CCN(CC)CCCn1c(=S)[nH]c2ccc(Cl)cc2c1=O` , no comment.
Reply text: 0.0726

Inquiry: State recorded z-score with Metabotropic glutamate receptor 8 (Rattus norvegicus) (UniProt P70579), entry `CCOC(=O)c1c(-c2ccc(C)o2)csc1NC(=S)NC(=O)N(C)C` , no comment.
Reply text: 13.6

Inquiry: State recorded z-score with Metabotropic glutamate receptor 8 (Rattus norvegicus) (UniProt P70579), entry `CCN(CC)CCn1c(=S)[nH]c2cc(Cl)ccc2c1=O` , no comment.
Reply text: 1.41

Inquiry: State recorded z-score with Metabotropic glutamate receptor 8 (Rattus norvegicus) (UniProt P70579), entry O=C(CC1C(=O)N(c2ccccc2)C(=S)N1c1ccccc1)c1ccccc1 (centres undefined) , no comment.
Reply text: 0.466

Inquiry: State recorded z-score with Metabotropic glutamate receptor 8 (Rattus norvegicus) (UniProt P70579), entry CCN(CC)CCCN1C(=O)c2oc3ccccc3c(=O)c2C1c1cccc(OC)c1OC (centres undefined) , no comment.
Reply text: 0.625

Inquiry: State recorded z-score with Metabotropic glutamate receptor 8 (Rattus norvegicus) (UniProt P70579), entry `O=C(NC(=S)Nc1ccc(Oc2ccccc2)cc1)c1ccc(Cl)cc1` , no comment.
Reply text: 1.23

Inquiry: State recorded z-score with Metabotropic glutamate receptor 8 (Rattus norvegicus) (UniProt P70579), entry `CCOC(=O)/C(C#N)=C/NC(=O)NC(C)(C)C` , no comment.
Reply text: 0.141

Inquiry: State recorded z-score with Metabotropic glutamate receptor 8 (Rattus norvegicus) (UniProt P70579), entry `CCOC(=O)c1c(-c2ccc(C)o2)csc1NC(=S)NC(=O)c1cccs1` , no comment.
Reply text: 3.05

Inquiry: State recorded z-score with Metabotropic glutamate receptor 8 (Rattus norvegicus) (UniProt P70579), entry `CC(=O)c1cc(OC(=O)N2CCOCC2)ccc1OC(=O)N1CCOCC1` , no comment.
Reply text: -0.376

Inquiry: State recorded z-score with Metabotropic glutamate receptor 8 (Rattus norvegicus) (UniProt P70579), entry `Cc1ccsc1/C=C(\C#N)C(=O)NCc1ccco1` , no comment.
Reply text: -0.0871

Inquiry: State recorded z-score with Metabotropic glutamate receptor 8 (Rattus norvegicus) (UniProt P70579), entry `CCOC(=O)N1CCN(C(=O)c2ccc3c(=O)n(CCC4=CCCCC4)c(=S)[nH]c3c2)CC1` , no comment.
Reply text: 0.221

Inquiry: State recorded z-score with Metabotropic glutamate receptor 8 (Rattus norvegicus) (UniProt P70579), entry CCN(CC)CCCN1C(=O)c2oc3ccccc3c(=O)c2C1c1cccs1 (centres undefined) , no comment.
Reply text: 13.2

Inquiry: State recorded z-score with Metabotropic glutamate receptor 8 (Rattus norvegicus) (UniProt P70579), entry `COc1ccc(C2=CC(=O)OC3(CCCCC3)O2)cc1` , no comment.
Reply text: -2.37

Inquiry: State recorded z-score with Metabotropic glutamate receptor 8 (Rattus norvegicus) (UniProt P70579), entry `O=c1c2ccccc2[nH]c(=S)n1CCC1=CCCCC1` , no comment.
Reply text: 0.577

Inquiry: State recorded z-score with Metabotropic glutamate receptor 8 (Rattus norvegicus) (UniProt P70579), entry COc1ccc(OC)c(C2c3c(oc4ccccc4c3=O)C(=O)N2CCCN(C)C)c1 (centres undefined) , no comment.
Reply text: -0.648

Inquiry: State recorded z-score with Metabotropic glutamate receptor 8 (Rattus norvegicus) (UniProt P70579), entry `O=c1c2ccc(Cl)cc2[nH]c(=S)n1CCC1=CCCCC1` , no comment.
Reply text: 5.05

Inquiry: State recorded z-score with Metabotropic glutamate receptor 8 (Rattus norvegicus) (UniProt P70579), entry `CC(=O)Nc1nc(-c2ccccc2)c(-c2ccccc2)o1` , no comment.
Reply text: -0.185

Inquiry: State recorded z-score with Metabotropic glutamate receptor 8 (Rattus norvegicus) (UniProt P70579), entry `CCOC(=O)c1ccc(Nc2ncnc3nc[nH]c23)cc1` , no comment.
Reply text: -0.0179

Inquiry: State recorded z-score with Metabotropic glutamate receptor 8 (Rattus norvegicus) (UniProt P70579), entry `COc1ccc(-n2nnnc2SCC(=O)N2CCOCC2)cc1` , no comment.
Reply text: 3.28

Inquiry: State recorded z-score with Metabotropic glutamate receptor 8 (Rattus norvegicus) (UniProt P70579), entry Cc1cccc(C)c1NC(=O)C(c1cccc([N+](=O)[O-])c1)N(C)C(=O)c1ccccn1 (centres undefined) , no comment.
Reply text: -0.125

Inquiry: State recorded z-score with Metabotropic glutamate receptor 8 (Rattus norvegicus) (UniProt P70579), entry `CCOC(=O)c1c(-c2ccc(C)o2)csc1NC(=S)NC(=O)c1ccccc1Br` , no comment.
Reply text: 0.406

Inquiry: State recorded z-score with Metabotropic glutamate receptor 8 (Rattus norvegicus) (UniProt P70579), entry `Cc1ccc(C(=O)Nc2nc(-c3ccccc3)c(-c3ccccc3)o2)cc1` , no comment.
Reply text: 3.53

Inquiry: State recorded z-score with Metabotropic glutamate receptor 8 (Rattus norvegicus) (UniProt P70579), entry CN(C)CCCN1C(=O)c2oc3ccccc3c(=O)c2C1c1cccs1 (centres undefined) , no comment.
Reply text: 2.78

Inquiry: State recorded z-score with Metabotropic glutamate receptor 8 (Rattus norvegicus) (UniProt P70579), entry `C/C(=C\C(=O)c1ccc(Br)cc1)NCc1ccccc1` , no comment.
Reply text: -0.0992
